tested on: DLK; construct: gene MAP3K12; conditions: concentration: 1 μM,replicates: in singlicate; n = 1;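 also: KINOMEscan kinase panel screen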
Doc: threshold 20% (exclusive). Items with %Inh beneath it return Satisfied; others return Not satisfied.

Reference set (2 entries):
compound	label.value
Cl.Cl.NC[C@H](Cc1ccc(C(F)(F)F)cc1)NC(=O)c1cc(Br)c(-c2ccnc3[nH]ccc23)s1	Satisfied
CN(C)CC(O)COc1ccc(Nc2nccc(-c3cnn4nc(N5CCOCC5)ccc34)n2)cc1 (centres unmarked)	Not satisfied

*Q* Hi there! Is %Inh for Nc1nc(Nc2ccccc2)cc(-c2ccc3c(N)n[nH]c3c2)n1 below 20%, do you know?
*A* Satisfied

*Q* Hi there! Is %Inh for NC(=O)c1cc(-c2ccccc2)cc2c(C3CCNCC3)c[nH]c12 below 20%, do you know?
*A* Not satisfied

*Q* Hi there! Is %Inh for CC(C)N1C(=O)Cc2cc(Nc3ncc(C(F)(F)F)c(NCc4cccc(S(C)(=O)=O)c4)n3)ccc21 below 20%, do you know?
*A* Satisfied

*Q* Hi there! Is %Inh for Cl.Oc1cc(-c2nc(-c3ccccc3)[nH]c2-c2ccncc2)ccc1Cl below 20%, do you know?
*A* Satisfied

*Q* Hi there! Is %Inh for Cl.Cl.Nc1nc(-c2ccc3c(N)n[nH]c3c2)cc(N2CCCC(NC(=O)c3ccccc3)C2)n1 (centres unmarked) below 20%, do you know?
*A* Satisfied

*Q* Hi there! Is %Inh for CC(C)Nc1cc(-c2ccc3c(N)n[nH]c3c2)nc(N)n1 below 20%, do you know?
*A* Not satisfied

----------
system: EPHB1; conditions: concentration: 1 μM,replicates: in singlicate; n = 1
measured.attribute: %Inh
Report field: quantity (unit follows the number).

Recorded results for 2 compounds are shown here.
compound	val
C=CC(=O)Nc1cc2c(Nc3ccc(F)c(Cl)c3)ncnc2cc1OCCCN1CCOCC1 [GW781483]	9%
CCn1c(-c2nonc2N)nc2c(C#CC(C)(C)O)nc(OCCN)cc21.Cl.Cl [GSK902056]	3%

Working through the 2 compounds below one at a time, give %Inh for each.
1. CN(C)CC(O)COc1ccc(Nc2nccc(-c3cnn4nc(N5CCOCC5)ccc34)n2)cc1 (centres unmarked) [GW767488]
2. C[C@@H]1CCN(C(=O)CC#N)C[C@@H]1N(C)c1ncnc2[nH]ccc12

*A*
1. 9%
2. 0%

Working through the 4 compounds below one at a time, give %Inh for each.
1. NC(=O)c1cc(-c2ccccc2)cc2c(C3CCNCC3)c[nH]c12 [GSK301362]
2. COc1ccc(C[C@@H](CN)NC(=O)c2cc(Br)c(-c3ccnc4[nH]ccc34)s2)cc1.Cl.Cl [GSK1389063]
3. Cl.Cl.Nc1nc(-c2ccc3c(N)n[nH]c3c2)cc(N2CCCC(NC(=O)c3ccccc3)C2)n1 (centres unmarked) [GSK2286775]
4. Cc1n[nH]c2ccc(-c3cc(OC[C@@H](N)Cc4ccccc4)cnc3-c3ccoc3)cc12.O=C(O)C(F)(F)F.O=C(O)C(F)(F)F [GSK507358]

*A*
1. 26%
2. 19%
3. 27%
4. 0%

----------
system: ASK2; construct: gene MAP3K6; details: concentration: 1 μM,replicates: in singlicate; n = 1
measured.attribute: %Inh (%)
Give bare numbers, in %.

compound	unit.of.measurement	val
C[C@@H](Oc1cc(-c2cnn(C3CCNCC3)c2)cnc1N)c1c(Cl)ccc(F)c1Cl	%	0
Cc1cc2cn[nH]c2cc1-c1cccc2c(N)c(C(N)=O)nnc12	%	95.6
Cl.Cl.NC[C@H](CC1CCCCC1)NC(=O)c1cc(Br)c(-c2ccnc3[nH]ccc23)s1 [GSK1581427]	%	17
Cl.Cl.Nc1nc(-c2ccc3c(N)n[nH]c3c2)cc(N2CCCC(NC(=O)c3ccccc3)C2)n1 (stereo not drawn) [GSK2286775]	%	11
CCN(CC)CCOc1ccc(Nc2ncc3cc(-c4c(Cl)cccc4Cl)c(=O)n(C)c3n2)cc1 [SB-601273]	%	0

Working through the 7 compounds below one at a time, give %Inh for each.
1. CCN(CC)CCCCNc1ncc2cc(-c3c(Cl)cccc3Cl)c(NC(=O)NC(C)(C)C)nc2n1
2. O=C(NCCCN1CCOC1=O)c1cnc(NCc2cc(Cl)ccc2Cl)nc1NC1CCCC1
3. CC(C)N1C(=O)Cc2cc(Nc3ncc(C(F)(F)F)c(NCc4cccc(S(C)(=O)=O)c4)n3)ccc21
4. CC(C)Nc1cc(-c2ccc3c(N)n[nH]c3c2)nc(N)n1 [GSK2221681]
5. C=CC(=O)Nc1cc2c(Nc3ccc(F)c(Cl)c3)ncnc2cc1OCCCN1CCOCC1 [GW781483]
6. Cc1ccc2c(-c3ccncc3)c(-c3ccc(F)cc3)nn2c1.Cl [GW461484]
7. Cc1cc(C(=O)Nc2ccc(Oc3ccc4nc(NC(=O)C5CC5)cn4n3)cc2)nn1-c1ccccc1

*A*
[0, 0, 0, 0, 0, 0, 0]

Working through the 3 compounds below one at a time, give %Inh for each.
1. CN(C)CCOc1ccc(-c2cc(-c3c[nH]nc3-c3ccccn3)ccn2)cc1 [GW835314]
2. C[C@@H]1CCN(C(=O)CC#N)C[C@@H]1N(C)c1ncnc2[nH]ccc12
3. C[C@H]1Oc2cc(cnc2N)-c2c(nn(C)c2C#N)CN(C)C(=O)c2ccc(F)cc21

*A*
[24, 0, 0]

----------
test system: TAOK2; conditions: concentration: 1 μM,replicates: in singlicate; n = 1
measured.attribute: %Inh (%)
One number for each entry, in %.

compound	%Inh / %
CCn1c(-c2nonc2N)nc2c(C#CC(C)(C)O)nc(OCCN)cc21.Cl.Cl [GSK902056]	0
NC(=O)c1cc(-c2ccccc2)cc2c(C3CCNCC3)c[nH]c12 [GSK301362]	28

Working through the 2 compounds below one at a time, give %Inh for each.
1. CC(C)N1C(=O)Cc2cc(Nc3ncc(C(F)(F)F)c(NCc4cccc(S(C)(=O)=O)c4)n3)ccc21
2. Cl.Oc1cc(-c2nc(-c3ccccc3)[nH]c2-c2ccncc2)ccc1Cl [SB-386023]

*A*
1. 0
2. 29

Working through the 4 compounds below one at a time, give %Inh for each.
1. C[C@H]1Oc2cc(cnc2N)-c2c(nn(C)c2C#N)CN(C)C(=O)c2ccc(F)cc21
2. Cl.Cl.NC[C@H](Cc1ccc(C(F)(F)F)cc1)NC(=O)c1cc(Br)c(-c2ccnc3[nH]ccc23)s1 [GSK1487252]
3. CN(C)CCOc1ccc(-c2cc(-c3c[nH]nc3-c3ccccn3)ccn2)cc1 [GW835314]
4. Cc1occc1-c1nc(N)c(OC[C@@H](N)Cc2c[nH]c3ccccc23)cc1-c1cc2c(C)n[nH]c2cn1 [GSK1660450]

*A*
1. 13
2. 0
3. 0
4. 89

----------
system: DCAMKL2; construct: gene DCLK2; settings: concentration: 1 μM,replicates: in singlicate; n = 1
Provide the recorded %Inh for the entries that follow.
Answers are plain numbers, in %.

molecule	measured.attribute	unit.of.measurement	val
Cl.Cl.Nc1nc(-c2ccc3c(N)n[nH]c3c2)cc(N2CCCC(NC(=O)c3ccccc3)C2)n1 (centres unmarked) [GSK2286775]	%Inh	%	0

Working through the 4 molecules below one at a time, give %Inh for each.
1. Cc1ccc2c(-c3ccncc3)c(-c3ccc(F)cc3)nn2c1.Cl [GW461484]
2. Cl.Cl.NC[C@H](CC1CCCCC1)NC(=O)c1cc(Br)c(-c2ccnc3[nH]ccc23)s1 [GSK1581427]
3. CNC(=O)c1ccccc1Sc1ccc2c(/C=C/c3ccccn3)n[nH]c2c1
4. CN(C)CC(O)COc1ccc(Nc2nccc(-c3cnn4nc(N5CCOCC5)ccc34)n2)cc1 (centres unmarked) [GW767488]

*A*
1: 0; 2: 14; 3: 14; 4: 61

----------
tested on: CDKL3; settings: concentration: 1 μM,replicates: in singlicate; n = 1
Threshold rule: %Inh greater than or equal to 5% is Condition met; below that, Condition not met.

Reference set (5 entries):
compound	label.value
Cc1occc1-c1nc(N)c(OC[C@@H](N)Cc2c[nH]c3ccccc23)cc1-c1cc2c(C)n[nH]c2cn1 [GSK1660450]	Condition not met
Cl.Cl.NC[C@H](Cc1ccc(C(F)(F)F)cc1)NC(=O)c1cc(Br)c(-c2ccnc3[nH]ccc23)s1 [GSK1487252]	Condition not met
CCN(CC)CCOc1ccc(Nc2ncc3cc(-c4c(Cl)cccc4Cl)c(=O)n(C)c3n2)cc1 [SB-601273]	Condition met
O=C(NCCCN1CCOC1=O)c1cnc(NCc2cc(Cl)ccc2Cl)nc1NC1CCCC1	Condition met
CC(C)Nc1cc(-c2ccc3c(N)n[nH]c3c2)nc(N)n1 [GSK2221681]	Condition not met

*Q* Exam item: decide whether the reported %Inh for CN(C)CCOc1ccc(-c2cc(-c3c[nH]nc3-c3ccccn3)ccn2)cc1 [GW835314] is at least 5%.
*A* Condition met

*Q* Exam item: decide whether the reported %Inh for NC(=O)c1cc(-c2ccccc2)cc2c(C3CCNCC3)c[nH]c12 [GSK301362] is at least 5%.
*A* Condition not met

meta.source: paper PMC5540273
